tested-target: T1, ZFP SBS#665 (synthetic)
T1 chain: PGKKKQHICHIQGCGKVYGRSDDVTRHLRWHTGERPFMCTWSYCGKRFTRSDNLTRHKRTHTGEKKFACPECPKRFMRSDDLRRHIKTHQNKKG
assay-info: EMSA
conditions: tags: MBP fusion
property: pKd
# pKd is unitless: minus log10 of the molar concentration; print number only

Briefly, pKd measured for GCGGAGGCGC (dsDNA) DNA 1: GCGGAGGCGC DNA 2: GCGCCTCCGC : 7.90
